- Test system: Escherichia coli TOP10;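 note: peptides expressed intracellularly from a pBAD plasmid library in pooled LB shake-flask culture, induced with 0.3% L-arabinose, DNA abundance read by NGS, three biological replicates, DESeq2 with apeglm shrinkage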
- measurement protocol: shrunken log2 fold change of peptide-encoding DNA abundance (4.5 h post-induction vs induction); higher = less antimicrobial activity (less host growth inhibition)
- assay setup: time post-induction: 4.5 h; library: site-saturation at positions 5, 18, 19, 20
Each entry gets rule not met if its shrunken log2 fold change stays under 0.01, and rule met if its shrunken log2 fold change is 0.01 or above.

Answered examples (3):
INSERT INTO results (polymer_sequence, study_system, class) VALUES
  ('RRIRQRPPRLPRPRPRPINNPRP', 'Escherichia coli TOP10', 'rule not met'),
  ('RRIRKRPPRLPRPRPRPQDIPRP', 'Escherichia coli TOP10', 'rule not met'),
  ('RRIRHRPPRLPRPRPRPERDPRP', 'Escherichia coli TOP10', 'rule met');

As a next step, examine the sequence that follows.
Query block: Could you verify whether the entry RRIRMRPPRLPRPRPRPVHCPRP shows shrunken log2 fold change of no less than 0.01?
Result block: rule met
